- System: HEK-293T
- METHOD_NOTES: Multiplex assay against HEK293T
- Format: toxicity, cell-based
- CONDITIONS: human, 48 h, 10 µM, compound concentration 10 uM, replicate 2
Labelling field: enter criterion met if recorded Population Apoptotic (%) is less than 60%. Enter criterion not met if it equals or exceeds that cut-off.

Some solved cases for reference:
{"COMPOUND": "COc1cc2nccc(Oc3ccc(NC(=O)Nc4cc(C)on4)c(Cl)c3)c2cc1OC.O", "ASSIGNED_LABEL": "criterion not met"}
{"COMPOUND": "Cc1cc(C)cc(-c2cnc3cc(Cl)c(-c4cccc(O)c4)cc3c2OCCCN)c1", "ASSIGNED_LABEL": "criterion not met"}

Hello, I'm reviewing records and need to know if Population Apoptotic (%) of `CC(C)(O)CNc1ncc(-c2ccnc(Nc3ccnc(Cl)c3)n2)c(CC2CC2)n1` is below 60%. Could you check?
criterion not met

# check: Population Apoptotic (%) < 60% for O=C1NCN(c2ccccc2)C12CCN(CCCOc1ccc(F)cc1)CC2 [SPIRAMIDE]
criterion met

Consider the compound `CN1CCN(c2ccc(OC(F)(F)F)c(Nc3ncc4c(n3)-c3c(c(C(N)=O)nn3CCO)CC4)c2)CC1` . Is its Population Apoptotic (%) strictly less than 60%?
criterion met

# strict comparison: is reported Population Apoptotic (%) < 60%? input = `COc1cc(-n2cnc3cc(-c4ccc(Cl)cc4)sc3c2=O)ccc1OCCN1CCCC1`
criterion not met

Item CN1CCC[C@@H]1CCO[C@](C)(c1ccccc1)c1ccc(Cl)cc1.O=C(O)/C=C/C(=O)O [CLEMASTINE FUMARATE] : Population Apoptotic (%) beneath 60%, strictly?
criterion not met

# check: Population Apoptotic (%) < 60% for `CCn1c(=O)c(-c2ccc(Cl)cc2Cl)cc2cnc(Nc3ccc(N4CCNCC4)c(F)c3)nc21`
criterion not met

* * *

- Tested on: U2OS
- METHOD_NOTES: Multiplex assay against U2OS
- Format: toxicity, cell-based
- CONDITIONS: human, 24 h, 10 µM, compound concentration 10 uM, replicate 2
Simple rule here: Population Pyknosed Nuclei (%) less than 20% is t, otherwise f.

{"COMPOUND": "COc1cc(-n2cnc3cc(-c4ccc(Cl)cc4)sc3c2=O)ccc1OCCN1CCCC1", "ASSIGNED_LABEL": "f"}
{"COMPOUND": "Cc1nc(-c2cn3c(n2)-c2ccc(-c4cnn(C(C)(C)C(N)=O)c4)cc2OCC3)n(C(C)C)n1", "ASSIGNED_LABEL": "t"}

For C=CC(=O)Nc1cc2c(Nc3ccc(F)c(Cl)c3)ncnc2cc1OCCCN1CCOCC1.Cl.Cl [CANERTINIB DIHYDROCHLORIDE] , is the recorded Population Pyknosed Nuclei (%) below the cut-off of 20%?
t

I'd appreciate it if you could check whether `Cc1nc(Nc2n[nH]c3c2CN(C(=O)N[C@H](CN(C)C)c2ccccc2)C3(C)C)c2sccc2n1` has Population Pyknosed Nuclei (%) smaller than 20%.
f

Is Population Pyknosed Nuclei (%) strictly under 20% for the entry `CCN(CC)CCCCNc1ncc2cc(-c3cc(OC)cc(OC)c3)c(NC(=O)NC(C)(C)C)nc2n1` ?
f

Decide: Population Pyknosed Nuclei (%) of `CC[C@H](C)C(=O)O[C@H]1C[C@@H](C)C=C2C=C[C@H](C)[C@H](CC[C@@H]3C[C@@H](O)CC(=O)O3)[C@H]21` strictly below 20%?
t

* * *

Would you mind telling me the reported Total Cell Count of each entry?
- Test system: Fibroblast
- METHOD_NOTES: Multiplex assay against human fibroblast
- Format: toxicity, cell-based
- CONDITIONS: 24 h, 10 µM, compound concentration 10 uM, replicate 2
Numbers only.

Solved entries:
{"MOLECULE": "Cc1c(-c2ccc(O)cc2)n(Cc2ccc(OCCN3CCCCCC3)cc2)c2ccc(O)cc12", "Total Cell Count": 50}
{"MOLECULE": "Cc1nc(Nc2n[nH]c3c2CN(C(=O)N[C@H](CN(C)C)c2ccccc2)C3(C)C)c2sccc2n1", "Total Cell Count": 92}
{"MOLECULE": "Cc1nc(-c2ccc(-c3ccc(C(=O)N4CCc5cc6c(cc54)C4(CCN(C)CC4)CO6)cc3)c(C)c2)no1", "Total Cell Count": 63}
{"MOLECULE": "CN1CCCC(n2nc(Cc3ccc(Cl)cc3)c3ccccc3c2=O)CC1.Cl (stereo unspecified) [AZELASTINE HYDROCHLORIDE]", "Total Cell Count": 96}

Fill in reported Total Cell Count for this entry: `CC[C@H](C)C(=O)O[C@H]1C[C@@H](C)C=C2C=C[C@H](C)[C@H](CC[C@@H]3C[C@@H](O)CC(=O)O3)[C@H]21`
74

* * *

For each record, write down the corresponding Population Membrane Permeable-Phenotype (%).
- Tested on: Fibroblast
- METHOD_NOTES: Multiplex assay against human fibroblast
- Assay type: toxicity, cell-based
- CONDITIONS: 12 h, 1 µM, compound concentration 1 uM, replicate 1
One number for each entry, in %.

Your task in this section: give Population Membrane Permeable-Phenotype (%) for each listed record.
1. Cn1cc(-c2[nH]c3cc(NC(=O)[C@H](N)C4CCCCC4)cc4c3c2C=NNC4=O)cn1
2. CN1CCC[C@@H]1CCO[C@](C)(c1ccccc1)c1ccc(Cl)cc1.O=C(O)/C=C/C(=O)O [CLEMASTINE FUMARATE]
3. CC(C)NCC(O)COc1ccc(CCOCC2CC2)cc1.Cl (stereo unspecified) [BETAXOLOL HYDROCHLORIDE]

[18, 13, 23]

* * *

- Tested on: HEK-293T
- METHOD_NOTES: Multiplex assay against HEK293T
- Type: toxicity, cell-based
- CONDITIONS: human, 24 h, 1 µM, compound concentration 1 uM, replicate 2
For each entry below, report its Population Mitotic Cells (%) value.
Numbers only, in %.

Example entries begin here.
{"SMILES_REPRESENTATION": "CCN(CC)CCCCNc1ncc2cc(-c3cc(OC)cc(OC)c3)c(NC(=O)NC(C)(C)C)nc2n1", "ENDPOINT_RESULT": 100}
{"SMILES_REPRESENTATION": "C=CC(=O)Nc1ccc2ncnc(Nc3ccc(OCc4cccc(F)c4)c(Cl)c3)c2c1.Cc1ccc(S(=O)(=O)O)cc1", "ENDPOINT_RESULT": 83}

In the following, a different molecule is considered.
Look up and report measured Population Mitotic Cells (%) for this entry: `Cc1[nH]c(/C=C2\C(=O)Nc3ccc(S(=O)(=O)N(C)c4cccc(Cl)c4)cc32)c(C)c1C(=O)N1CCN(C)CC1`
75

* * *

- Test system: U2OS
- METHOD_NOTES: Multiplex assay against U2OS
- Assay type: toxicity, cell-based
- CONDITIONS: human, 12 h, 10 µM, compound concentration 10 uM, replicate 1
ASSAY_READOUT: Population Tubulin-Different-Phenotype (%)
Give bare numbers, in %.

{"MOLECULE": "Cc1c(-c2ccc(O)cc2)n(Cc2ccc(OCCN3CCCCCC3)cc2)c2ccc(O)cc12", "U": "%", "ENDPOINT_RESULT": 98}
{"MOLECULE": "COc1cccc([C@@H](C)NCCCc2ccccc2Cl)c1.Cl [TECALCET HYDROCHLORIDE]", "U": "%", "ENDPOINT_RESULT": 90}
{"MOLECULE": "Cc1nc(Nc2n[nH]c3c2CN(C(=O)N[C@H](CN(C)C)c2ccccc2)C3(C)C)c2sccc2n1", "U": "%", "ENDPOINT_RESULT": 75}

Return reported Population Tubulin-Different-Phenotype (%) values for all items listed beneath this line.
1. Cl.N#Cc1ccc2[nH]cc(CCCCN3CCN(c4ccc5oc(C(N)=O)cc5c4)CC3)c2c1 [VILAZODONE HYDROCHLORIDE]
2. C[C@@H](NCCCc1cccc(C(F)(F)F)c1)c1cccc2ccccc12.Cl [CINACALCET HYDROCHLORIDE]
3. CN(C)CC#Cc1ccc(OCCCc2sc(N3CCc4cccc(C(=O)Nc5nc6ccccc6s5)c4C3)nc2C(=O)O)c(F)c1
4. C=CC(=O)Nc1cccc(C(=O)Nc2ccc(Nc3cc(-c4[nH]c(SC)nc4C)ccn3)cc2)c1
5. CNc1nc(NCc2ccc(NS(C)(=O)=O)cc2Cl)cc(-c2ccccn2)n1

1. 100
2. 98
3. 13
4. 9
5. 37

* * *

- System: U2OS
- METHOD_NOTES: Incucyte cell viability with U2OS; also: filed as whole numbers so only -1 and 0 and 1 occur
- Format: toxicity, cell-based
- CONDITIONS: human, 0 h, 10 µM, compound concentration 10 uM, replicate number 2, timepoint 0 hours
Where a SMILES comes first, the peptide text is derived from it. [ ]: non-standard residue; d: D form. Arg(Me) = CNC(=N)NCCC[C@H](N)C(=O)O; d4Pal = N[C@H](Cc1ccncc1)C(=O)O; azaGly = NNC(=O)O
Please provide measured Growth Rate for the entries that follow.
One number for each entry.

See these solved cases before continuing.
{"COMPOUND": "C=C1/C(=C\\C=C2/CCC[C@]3(C)[C@@H]([C@H](C)/C=C/C=C/C(O)(CC)CC)CC[C@@H]23)C[C@@H](O)C[C@@H]1O [SEOCALCITOL]", "Growth Rate": 1}
{"COMPOUND": "CN(C)c1ncnc(-c2ccc3nc(Nc4cc(CN5CCN(C(=O)CC(F)(F)F)CC5)ccn4)[nH]c3c2)c1Cl [BAY-440]", "Growth Rate": 0}
{"COMPOUND": "C=CC(=O)Nc1ccc2ncnc(Nc3ccc(OCc4cccc(F)c4)c(Cl)c3)c2c1.Cc1ccc(S(=O)(=O)O)cc1", "Growth Rate": 1}

Please give Growth Rate, item by item, for the list that follows.
1. CN(c1ccnc(CNc2nc(Nc3ccc4c(c3)CC(=O)N4)ncc2C(F)(F)F)n1)S(C)(=O)=O [PF-00911705]
2. COc1ccc(Cn2ccc3ccc(C(=O)NO)cc32)cc1

1: 0; 2: 1

Okay, here is my list. What is Growth Rate for each of these?
1. CCN(CC)CCCCNc1ncc2cc(-c3cc(OC)cc(OC)c3)c(NC(=O)NC(C)(C)C)nc2n1 [PD-173074]
2. COc1cc2nccc(Oc3ccc(NC(=O)Nc4cc(C)on4)c(Cl)c3)c2cc1OC.O
3. CCn1cc(-c2cccc(C(F)(F)F)c2)c2sc(C(=N)NC3CCS(=O)(=O)CC3)cc2c1=O
4. O=C(O)c1ccc(-c2coc3ncc(-c4ccccc4)cc23)cc1Cl
5. COc1cccc(OC)c1-c1cc(C(=O)NC2(C(=O)O)C3CC4CC(C3)CC2C4)nn1-c1ccc(C(=O)N(C)CCCN(C)C)cc1C(C)C (stereo unspecified)
6. CN1C(=O)c2sccc2N(C)c2nc(Nc3ccc(S(N)(=O)=O)cc3)ncc21
7. CN1C(=O)[C@@H](N2CCc3cn(Cc4ccccc4)nc3C2=O)COc2ccccc21 [TP-030-1]
8. CN(C)S(=O)(=O)c1ccc(NC(=S)N2CCC(C(O)(c3ccccc3)c3ccccc3)CC2)cc1

1: 0; 2: 0; 3: 0; 4: 0; 5: 0; 6: 0; 7: 0; 8: 0

Provide Growth Rate values for the following items, in order.
1. O=C(O)C[C@H]1CCc2c1[nH]c1ccc(OCc3ccc(C4CCCC4)c(C(F)(F)F)c3)cc21 [ETRASIMOD]
2. Cc1c(-c2ccc(O)cc2)n(Cc2ccc(OCCN3CCCCCC3)cc2)c2ccc(O)cc12 [BAZEDOXIFENE]
3. CCOc1cc(N2CCC(O)CC2)ccc1Nc1ncc2c(n1)N(C)c1ccccc1C(=O)N2C
4. CC(=O)OCC(=O)[C@@]1(O)CC[C@H]2[C@@H]3CCC4=CC(=O)CC[C@]4(C)[C@@]3(F)[C@@H](O)C[C@@]21C [FLUDROCORTISONE ACETATE]

1
0
1
1

For the 4 compounds below, give their Growth Rate values.
1. CC(=O)C1=C(C)N(c2cccc(C(F)(F)F)c2)C(=O)N[C@H]1c1ccc(C#N)nc1 [BAY-677]
2. CNC(=N)NCCC[C@H](NC(=O)[C@H](CC(C)C)NC(=O)NNC(=O)[C@H](Cc1ccccc1)NC(=O)[C@H](CO)NC(=O)[C@H](CC(N)=O)NC(=O)[C@@H](Cc1ccncc1)NC(=O)[C@H](N)Cc1ccc(O)cc1)C(=O)N[C@@H](Cc1ccccc1)C(N)=O [KISS1-305] (H-[dY][d4Pal]NSF[azaGly]L[Arg(Me)]F-NH2)
3. O=C(c1ccc(F)cc1)N1CC(COc2ccc(Br)cc2)(C(=O)O)C1 [PF-04475866]
4. c1cn2cc(-c3ccc4cn[nH]c4c3)nc(Nc3ccc(N4CCOCC4)cc3)c2n1 [ENTOSPLETINIB]

1
0
0
1
